Molecular target: UniProt:Q9NR96
Sequence (Q9NR96 26-1032): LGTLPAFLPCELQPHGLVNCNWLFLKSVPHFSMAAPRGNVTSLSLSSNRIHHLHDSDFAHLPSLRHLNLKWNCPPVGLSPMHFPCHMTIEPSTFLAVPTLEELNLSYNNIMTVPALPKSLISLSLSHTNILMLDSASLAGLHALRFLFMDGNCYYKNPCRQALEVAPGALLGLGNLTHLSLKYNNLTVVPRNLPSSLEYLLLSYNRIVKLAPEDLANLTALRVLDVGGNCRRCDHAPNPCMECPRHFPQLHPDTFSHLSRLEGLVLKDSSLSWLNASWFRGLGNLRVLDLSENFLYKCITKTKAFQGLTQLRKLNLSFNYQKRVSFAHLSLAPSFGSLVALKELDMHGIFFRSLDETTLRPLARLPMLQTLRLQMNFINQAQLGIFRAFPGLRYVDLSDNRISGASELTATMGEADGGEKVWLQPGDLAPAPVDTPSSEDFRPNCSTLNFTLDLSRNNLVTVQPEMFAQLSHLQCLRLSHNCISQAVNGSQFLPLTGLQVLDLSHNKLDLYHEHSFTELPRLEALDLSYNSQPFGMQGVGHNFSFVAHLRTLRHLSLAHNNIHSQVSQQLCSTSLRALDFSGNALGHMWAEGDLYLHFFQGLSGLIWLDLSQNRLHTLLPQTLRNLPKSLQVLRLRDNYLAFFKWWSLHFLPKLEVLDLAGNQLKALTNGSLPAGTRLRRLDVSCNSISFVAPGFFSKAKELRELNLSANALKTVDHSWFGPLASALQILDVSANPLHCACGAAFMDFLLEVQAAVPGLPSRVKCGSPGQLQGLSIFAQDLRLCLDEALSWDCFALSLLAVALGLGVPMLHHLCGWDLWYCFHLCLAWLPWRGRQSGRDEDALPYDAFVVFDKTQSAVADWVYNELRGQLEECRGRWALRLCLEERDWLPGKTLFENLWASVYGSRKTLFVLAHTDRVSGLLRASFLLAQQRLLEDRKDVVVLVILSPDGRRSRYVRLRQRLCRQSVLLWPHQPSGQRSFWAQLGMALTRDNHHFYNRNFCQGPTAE
Assay: TLR9 inhibition reporter assay (HEK-Blue SEAP)
Details: HEK-Blue cells overexpressing human TLR9, stimulated with ODN2006 5 nM, 22 hour incubation
pIC50: −log10 of the molar value.
Please mark true (1) if the recorded pIC50 is equal to or greater than 6, and false (0) if it falls below.

In [3]: df
Out[3]:
                                    compound    study_target  qualitative_label
 0  Cc1cc(-c2[nH]c3ccc(OCC4CCN(C(=O)CN(C)C)CC4)cc3c2C(C)C)cn2ncnc12  UniProt:Q9NR96          false (0)
 1  Cc1cc(-c2[nH]c3ccc(OCc4c[nH]cn4)cc3c2C(C)C)ccn1 [Example 178]  UniProt:Q9NR96          false (0)
 2  Cc1cc(-c2[nH]c3ccc(OCC4CCN(C(=O)CN(C)C)CC4)cc3c2C(C)C)cn(C)c1=O  UniProt:Q9NR96          false (0)
 3  Cc1cc(-c2[nH]c3ccc(OC4CCN(CCCC(F)(F)F)CC4)cc3c2C(C)C)cn(C)c1=O  UniProt:Q9NR96          false (0)
 4  Cc1c(-c2[nH]c3ccc(OCC4CCN(C(C)C)CC4)cc3c2C(C)C)cn(C)c(=O)c1C  UniProt:Q9NR96          false (0)
 5  Cc1cc(-c2[nH]c3ccc(OCC4CCCNC4)cc3c2C(C)C)cc(C)n1 (stereo not shown)  UniProt:Q9NR96           true (1)
 6  Cc1c(-c2[nH]c3ccc(OCC4CN(C)C4)cc3c2C(C)C)cn2cnnc2c1C  UniProt:Q9NR96          false (0)
 7  Cc1cc(-c2[nH]c3ccc(OCC4CN(CC(C)(C)O)C4)cc3c2C(C)C)cn2ncnc12  UniProt:Q9NR96          false (0)
 8  Cc1cc(-c2[nH]c3ccc(OCc4ccc(N5CCOCC5)cc4)cc3c2C(C)C)ccn1  UniProt:Q9NR96          false (0)
 9  CCc1c(-c2ccc(OC)c(OC)c2)[nH]c2ccc(OC3CCN(C4CCN(CC(C)C)CC4)CC3)cc12  UniProt:Q9NR96           true (1)
10  CCc1c(-c2ccc(OC)c(OC)c2)[nH]c2ccc(OCC3CCNCC3)cc12  UniProt:Q9NR96          false (0)
11  Cc1cc(-c2[nH]c3ccc(OCC4CCN(C)CC4)cc3c2C(C)C)cc(C)n1  UniProt:Q9NR96           true (1)
12  COc1cc(-c2[nH]c3ccc(OC4CCN(CC(=O)N(C)C)CC4)cc3c2C(C)C)cn2ncnc12  UniProt:Q9NR96          false (0)
13  COc1ccc(-c2[nH]c3ccc(OCC(=O)N[C@@H]4CCCC[C@H]4N)cc3c2C(C)C)cc1OC  UniProt:Q9NR96          false (0)

* * *

target: human TLR8 (Homo sapiens); construct: host or cells: HEK-Blue cells; test: TLR8 inhibition reporter assay (HEK-Blue SEAP); type: cell-based; conditions: HEK-Blue cells overexpressing human TLR8, stimulated with R848 15.9 μM, 22 hour incubation
Sequence (Q9NR97 27-1041): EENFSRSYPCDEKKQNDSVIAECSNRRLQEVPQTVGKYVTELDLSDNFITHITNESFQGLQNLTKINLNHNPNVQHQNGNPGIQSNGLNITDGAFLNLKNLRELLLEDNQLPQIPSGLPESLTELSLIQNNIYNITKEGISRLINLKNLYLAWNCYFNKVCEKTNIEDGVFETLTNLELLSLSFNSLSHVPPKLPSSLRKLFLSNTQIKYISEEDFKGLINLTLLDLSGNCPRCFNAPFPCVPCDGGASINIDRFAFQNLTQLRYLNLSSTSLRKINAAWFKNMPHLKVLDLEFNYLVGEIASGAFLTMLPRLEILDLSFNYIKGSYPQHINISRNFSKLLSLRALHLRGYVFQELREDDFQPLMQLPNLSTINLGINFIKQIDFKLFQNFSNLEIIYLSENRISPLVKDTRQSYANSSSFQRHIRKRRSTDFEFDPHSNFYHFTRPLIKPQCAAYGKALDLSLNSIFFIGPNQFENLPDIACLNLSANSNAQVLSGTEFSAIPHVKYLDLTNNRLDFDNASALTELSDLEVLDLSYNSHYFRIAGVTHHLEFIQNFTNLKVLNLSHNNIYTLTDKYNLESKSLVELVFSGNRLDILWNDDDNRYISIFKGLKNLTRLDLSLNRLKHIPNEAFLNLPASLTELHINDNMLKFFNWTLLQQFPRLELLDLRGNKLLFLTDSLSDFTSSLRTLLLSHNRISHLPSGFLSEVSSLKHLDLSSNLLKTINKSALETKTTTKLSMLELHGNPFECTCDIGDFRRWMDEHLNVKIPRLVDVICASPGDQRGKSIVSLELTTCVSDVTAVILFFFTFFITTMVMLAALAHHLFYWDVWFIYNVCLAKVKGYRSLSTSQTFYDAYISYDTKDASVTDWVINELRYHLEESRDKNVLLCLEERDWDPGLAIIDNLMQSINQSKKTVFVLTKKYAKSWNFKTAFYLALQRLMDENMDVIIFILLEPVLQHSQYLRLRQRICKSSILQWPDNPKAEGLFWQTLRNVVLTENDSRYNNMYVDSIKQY
value.kind: IC50 (nM)

>>> print(df.to_string())
                                    compound  meas_value
 0  Cc1cc(-c2[nH]c3ccc(OC4CCC(OC5CCNCC5)CC4)cc3c2C(C)C)ccn1 (centres unmarked) [Example 185]        22.6
 1  Cc1cc(-c2[nH]c3ccc(OCCN4CCOCC4)cc3c2C(C)C)cn2ncnc12 [Example 5]         3.3
 2  Cc1cc(-c2[nH]c3ccc(OC4CCN(C5CCN(C(C)C)CC5)CC4)cc3c2C(C)C)ccn1 [Example 195]         0.6
 3  Cc1cc(-c2[nH]c3ccc(OCC4CCCN(C)C4)cc3c2C(C)C)cc(C)n1 (centres unmarked) [Example 30]         2.6
 4  Cc1cc(-c2[nH]c3ccc(OCC(=O)NCCC4CCCNC4)cc3c2C(C)C)ccn1 (centres unmarked) [Example 146]        98.4
 5  Cc1cc(-c2[nH]c3ccc(OCCN(C)C)cc3c2C(C)C)ccn1 [Example 167]         3.1
 6  Cc1cc(-c2[nH]c3ccc(OCC4CCN(C(=O)CN(C)C)CC4)cc3c2C(C)C)cn2ncnc12 [Example 102]           5
 7  Cc1cc(-c2[nH]c3ccc(OC4CCC(N(C)C)CC4)cc3c2C(C)C)cn2ncnc12 (centres unmarked) [Example 64]        10.6
 8  Cc1cc(-c2[nH]c3ccc(OCC4CCN(C)CC4)cc3c2C(C)C)ccn1 [Example 188]         2.1
 9  Cc1cc(-c2[nH]c3ccc(O[C@H]4CCCNC4)cc3c2C(C)C)cn(C)c1=O [Example 8]        13.9
10  Cc1cc(-c2[nH]c3ccc(OCC4CN(C5COC5)C4)cc3c2C(C)C)cn2ncnc12 [Example 60]         4.7
11  Cc1cc(-c2[nH]c3ccc(OC4CCN(C(=O)CN(C)C)CC4)cc3c2C(C)C)cn2ncnc12 [Example 101]        35.9
12  CNC(=O)CN1CCC(COc2ccc3[nH]c(-c4cc(C)c(=O)n(C)c4)c(C(C)C)c3c2)CC1 [Example 111]         6.8
13  Cc1cc(-c2[nH]c3ccc(OCC4CCN(CCS(C)(=O)=O)CC4)cc3c2C(C)C)cn2ncnc12 [Example 91]           1
14  Cc1c(-c2[nH]c3ccc(OC4CCN(CC(=O)N(C)C)CC4)cc3c2C(C)C)cn2cnnc2c1C [Example 90]        13.3
15  COc1ccc(-c2[nH]c3ccc(OCC(=O)N(C)C4CN5CCC4CC5)cc3c2C(C)C)cc1OC (centres unmarked) [Example 121]        57.7
16  CCc1c(-c2ccnc(C)c2)[nH]c2ccc(O[C@H]3CCNC3)cc12 [Example 182]        19.2
17  Cc1cc(-c2[nH]c3ccc(OCC4CCN(C)CC4)cc3c2C(C)C)cn(C)c1=O [Example 34]         1.6
18  Cc1c(-c2[nH]c3ccc(OC4CCN(C(C)C)CC4)cc3c2C(C)C)cn(C)c(=O)c1C [Example 48]           1
19  COc1ccc(-c2[nH]c3ccc(OCC(=O)NCCC(C)(C)O)cc3c2C(C)C)cc1OC [Example 153]        2530
20  Cc1cc(-c2[nH]c3ccc(OCC4CCN(CCO)CC4)cc3c2C(C)C)cc(C)n1 [Example 71]         2.5
21  Cc1cc(-c2[nH]c3ccc(OCC4CCCN(CC(C)(C)O)C4)cc3c2C(C)C)cc(C)n1 (centres unmarked) [Example 23]         4.4
22  Cc1c(-c2[nH]c3ccc(OCC4CCN(C(=O)CN(C)C)CC4)cc3c2C(C)C)cn(C)c(=O)c1C [Example 103]        14.9
23  COc1ccc(-c2[nH]c3ccc(OCC(=O)NC4CCNCC4)cc3c2C(C)C)cc1OC [Example 136]          37
24  COc1ccc(-c2[nH]c3ccc(OCC(=O)N4CCC(OC5CCNCC5)CC4)cc3c2C(C)C)cc1OC [Example 138]        24.7
25  Cc1cc(-c2[nH]c3ccc(OCC4CCNCC4)cc3c2C(C)C)cn2ncnc12 [Example 12]           3
26  COCCN1CCC(Oc2ccc3[nH]c(-c4cc(C)nc(C)c4)c(C(C)C)c3c2)CC1 [Example 75]         1.5
27  Cc1cc(-c2[nH]c3ccc(OCC4CCN(CC(C)(C)O)CC4)cc3c2C(C)C)cc(C)n1 [Example 24]           3
28  CCCN1CCC(COc2ccc3[nH]c(-c4cn5cnnc5c(C)c4C)c(C(C)C)c3c2)CC1 [Example 62]           6
29  Cc1cc(-c2[nH]c3ccc(OC4CCN(C(C)C)CC4)cc3c2C(C)C)ccn1 [Example 186]         3.1
30  COCCN1CCC(COc2ccc3[nH]c(-c4cc(C)c(=O)n(C)c4)c(C(C)C)c3c2)CC1 [Example 74]         3.9
31  Cc1c(-c2[nH]c3ccc(OCC4CCN(CC(=O)N(C)C)CC4)cc3c2C(C)C)cn(C)c(=O)c1C [Example 88]        22.4
